Source: the pKa sets of Baltruschat and Czodrowski (2020)

# SETUP CONDITIONS: basic group
ASSAY ENDPOINT: pKa
No unit in the answer, please; the number alone is enough.

Please fill in: pKa reported for c1cc(N2CCOCC2)ccn1 = 8.79

Please fill in: pKa reported for COC(=O)C(N)Cc1c[nH]cn1 (stereo unspecified) = 7.35

Please fill in: pKa reported for Cc1ccc(/C(N)=N/O)cc1 = 5.14

Please fill in: pKa reported for Cc1ccc(CCN)cc1 = 9.78

Please fill in: pKa reported for COc1ccc2c(c1)[nH]c1c(C)nccc12 = 7.73

Please fill in: pKa reported for C[NH+]1CCC(NN)CC1 = 5.7

Please fill in: pKa reported for c1ccc(CSc2ccccn2)cc1 = 3.23

Please fill in: pKa reported for CNCC(=O)N(C)C = 8.86

Please fill in: pKa reported for C[Se]CCN = 9.53

Please fill in: pKa reported for Cc1nnc2c(c1C)CCCC2 = 5.41

Please fill in: pKa reported for CN(C)CCCN(C)CCC[NH+](C)C = 9

Please fill in: pKa reported for c1ccc2nnccc2c1 = 2.29

Please fill in: pKa reported for Cc1ccc(C)nn1 = 3.99

Please fill in: pKa reported for Nc1ccnnc1 = 6.69

Please fill in: pKa reported for Cc1cc(C)c(CO)c(C)n1 = 7.1

Please fill in: pKa reported for CC(C)C[C@H]([NH3+])C(=O)N[C@@H](Cc1c[nH]cn1)C(=O)[O-] = 6.69

---

# SETUP CONDITIONS: basic group
Label criterion not met if pKa falls below 8; label criterion met in every other case.

Query string: Test whether the compound c1cncc(-c2ccc[nH+]c2)c1 records pKa of 8 or higher.
Result string: criterion not met

Query string: Test whether the compound CN1CC=CCN1C records pKa of 8 or higher.
Result string: criterion not met

Query string: Test whether the compound Cc1cnc(N(C)C)s1 records pKa of 8 or higher.
Result string: criterion not met

Query string: Test whether the compound CC1CCCCN1 (stereo not given) records pKa of 8 or higher.
Result string: criterion met

Query string: Test whether the compound CCCCNc1ccnc([S-])n1 records pKa of 8 or higher.
Result string: criterion met

Query string: Test whether the compound CNCC(O)c1ccccc1 (stereo not given) records pKa of 8 or higher.
Result string: criterion met

Query string: Test whether the compound Cc1ccncc1C records pKa of 8 or higher.
Result string: criterion not met

Query string: Test whether the compound N=C(N)Nc1nccc(-c2csc(N)n2)n1 records pKa of 8 or higher.
Result string: criterion met

Query string: Test whether the compound CCCN(CCC)CC(=O)Nc1c(C)cccc1C records pKa of 8 or higher.
Result string: criterion not met

Query string: Test whether the compound Nc1ccc(S(=O)(=O)Nc2ccncn2)cc1 records pKa of 8 or higher.
Result string: criterion not met

Query string: Test whether the compound O=C1[C@H]2C[C@H](CN3CCCC[C@@H]23)C2=CCCCN12 records pKa of 8 or higher.
Result string: criterion not met

Query string: Test whether the compound CSc1ccnc2ccccc12 records pKa of 8 or higher.
Result string: criterion not met

Query string: Test whether the compound NCCC(=O)N[C@@H](Cc1c[nH]cn1)C(=O)[O-] records pKa of 8 or higher.
Result string: criterion met

Query string: Test whether the compound Nc1ccc(Cl)c2ccccc12 records pKa of 8 or higher.
Result string: criterion not met

Query string: Test whether the compound CC(CN1CCCCC1)C(C#N)(c1ccccc1)c1ccccc1 (stereo not given) records pKa of 8 or higher.
Result string: criterion not met

Query string: Test whether the compound C[C@H](N)[C@H](O)c1ccc(O)cc1 records pKa of 8 or higher.
Result string: criterion met

Query string: Test whether the compound Nc1cc[n+]([O-])cc1 records pKa of 8 or higher.
Result string: criterion not met

Query string: Test whether the compound CN(C)CCCN(C)C records pKa of 8 or higher.
Result string: criterion met

Query string: Test whether the compound CC(C)NNC1CC[NH+](C(C)C)CC1 records pKa of 8 or higher.
Result string: criterion not met

Query string: Test whether the compound Cc1cc(Br)c(N)c(Br)c1 records pKa of 8 or higher.
Result string: criterion not met

Query string: Test whether the compound CC(C)N/C=[NH+]/c1ccc(-c2cn(C)cn2)cc1 records pKa of 8 or higher.
Result string: criterion not met

Query string: Test whether the compound CCCCCCCCN1CCCCC1 records pKa of 8 or higher.
Result string: criterion met

Query string: Test whether the compound COc1cccc(C(=O)N[C@H]2C[C@H]3CC[C@@H](C2)N3Cc2ccccc2)c1OC records pKa of 8 or higher.
Result string: criterion met

Query string: Test whether the compound CNc1nc(C)nc2nc[nH]c12 records pKa of 8 or higher.
Result string: criterion not met

Query string: Test whether the compound CC(C)n1c(N)nc2ccc(/C(=C\C(N)=O)c3cccc(F)c3F)cc21 records pKa of 8 or higher.
Result string: criterion not met

Query string: Test whether the compound N[C@@H]1CCCC[C@@H]1N records pKa of 8 or higher.
Result string: criterion met

Query string: Test whether the compound CNc1nc(C)nc2[nH]ncc12 records pKa of 8 or higher.
Result string: criterion not met

Query string: Test whether the compound c1c[nH]c(P(c2[nH]cc[nH+]2)c2[nH]cc[nH+]2)n1 records pKa of 8 or higher.
Result string: criterion not met

Query string: Test whether the compound CN(C)CCCN(C)C(=O)/C=N/[O-] records pKa of 8 or higher.
Result string: criterion met

---

# SETUP CONDITIONS: acidic group
Label NOT MET if pKa falls below 5; label MET in every other case.

Query string: Test whether the compound NC(=O)Nc1[nH]cnc1C(=O)[O-] records pKa of 5 or higher.
Result string: MET

Query string: Test whether the compound C[C@H]1CCCC[C@@H]1C(=O)O records pKa of 5 or higher.
Result string: NOT MET

Query string: Test whether the compound CCC(CC)C1(CC)C(=O)[N-]C(=S)NC1=O records pKa of 5 or higher.
Result string: MET

Query string: Test whether the compound CC(C)CCC1C(=O)C(O)C(CCC(C)C)(CCC(C)C)C1=O (configuration not stated) records pKa of 5 or higher.
Result string: MET

Query string: Test whether the compound O=c1[nH]c2ccccc2nc1[O-] records pKa of 5 or higher.
Result string: MET

Query string: Test whether the compound Cc1cc(C(=O)O)c[nH]1 records pKa of 5 or higher.
Result string: MET

Query string: Test whether the compound C[C@H](O)C(=O)C1=Nc2c(nc(N)[nH+]c2O)NC1 records pKa of 5 or higher.
Result string: NOT MET

---

# SETUP CONDITIONS: basic group
ASSAY ENDPOINT: pKa

Please fill in: pKa reported for Cc1cnc2c(ccc3cccnc32)c1C = 5.62

Please fill in: pKa reported for NCC(=O)Nc1ccc([N+](=O)[O-])cc1 = 8.5

Please fill in: pKa reported for c1ccc2c(c1)NCCN2 = 4.84

Please fill in: pKa reported for C[NH+](C)c1ccc(/N=N/c2ccncc2)cc1 = 3.4

Please fill in: pKa reported for Nc1ccnc(-c2cccc(Cl)n2)c1 = 7.7

Please fill in: pKa reported for CN(c1ccccc1)C(C)(C)C = 7.5

Please fill in: pKa reported for CC(C)N(Cc1ccccc1O)C(C)C = 7.55

Please fill in: pKa reported for CC(C)[NH+]1CCC(NN)CC1 = 5.75

Please fill in: pKa reported for O=C([O-])CN1CCCCC1 = 10.3

Please fill in: pKa reported for CC(CCN(C)C)NN (stereo not given) = 9.23

Please fill in: pKa reported for c1ccc(CN2CCCC2)cc1 = 9.51

Please fill in: pKa reported for COc1ccc(-c2cnc(-c3ccc(N)cc3)o2)cc1 = 3.22

Please fill in: pKa reported for Oc1c(Br)cc(Br)c2cccnc12 = 2.6

Please fill in: pKa reported for COc1ccc(CN2CC(O[Si](C)(C)C)C2)cc1 = 8.17

Please fill in: pKa reported for Cc1ccc(NC(=O)CN2CCCCC2)cc1 = 7.85

---

Task for the reader: assign each of the following compounds its reported pKa.
# SETUP CONDITIONS: acidic group
No unit in the answer, please; the number alone is enough.

Please fill in: pKa reported for Cc1cccnc1/C=N/O = 10.5

Please fill in: pKa reported for O=C(O)/C(I)=C\c1ccccc1 = 2.24

Please fill in: pKa reported for O=C(O)CC(c1ccccc1)c1ccccc1Cl (stereo unspecified) = 4.7

Please fill in: pKa reported for Oc1ccc(F)cc1C[NH+]1CCCCC1 = 8.81

Please fill in: pKa reported for CC[Si](C)(C)CCCC(=O)O = 5.02

Please fill in: pKa reported for CC(=O)CC(=S)Nc1ccccc1 = 7.5

Please fill in: pKa reported for COC(=O)/C(=N/O)c1ccccc1 = 8.87

Please fill in: pKa reported for OC(O)c1ccccn1 = 12.8

Please fill in: pKa reported for O=C(O)Cn1cccc1 = 3.3

Please fill in: pKa reported for O=c1cc(-c2ccc(O)cc2)oc2ccccc12 = 8.27

Please fill in: pKa reported for O=C(O)/C(I)=C/c1ccccc1 = 3.3

Please fill in: pKa reported for NNC(=O)C(F)F = 9.66

Please fill in: pKa reported for CC[C@]1(c2ccccc2)NC(=O)NC1=O = 8.5

Please fill in: pKa reported for [NH3+][C@@H](Cc1nc(I)[nH]c1I)C(=O)[O-] = 8.18

Please fill in: pKa reported for O=S1(=O)N=CNc2ncccc21 = 7.03

Please fill in: pKa reported for CC1CCC(=O)C1=O (stereo unspecified) = 9.6
